The values you see were collected from patent US12195427B2.

a(O1, O2, H3): recorded values
MEASUREMENT TARGET: MASP-2 CCP2-SP (Homo sapiens (Human))
TEST PROTOCOL: MASP-2 co-crystallization, X-ray crystallography and structure analysis (H-bonds, van der Waals contacts)
PROTOCOL CONDITIONS: Table A6-2 pharmacophore angle
Counter-ions that a name gives are not always drawn.
Reply with just the number.

Sample records with a(O1, O2, H3):
{"MOLECULE": "Cc1nc(N)ccc1CNC(=O)[C@H](C)NC(=O)[C@H]1C[C@H](Cc2ccccc2-c2ccccc2)CN1 [compound 1373, Di-trifluoroacetate salt]", "a(O1, O2, H3)": 147.32}
{"MOLECULE": "CC(=O)Nc1ccc(CCNC(CCc2ccccc2)C(=O)NC(C)C(=O)NCc2ccc(C(=N)N)cc2)cc1.Cl.Cl (stereo not drawn) [1345_2]", "a(O1, O2, H3)": 152.27}

Find the recorded a(O1, O2, H3) belonging to C[C@H](NC(=O)[C@H](N)C1Cc2ccccc2C1)C(=O)NCc1ccc2c(N)nccc2c1.Cl.Cl [1088_A] and report it. 144.04

Find the recorded a(O1, O2, H3) belonging to C[C@H](NC(=O)[C@H]1C[C@@H](c2ccccc2)CCN1)C(=O)NCc1cc(Cl)ccc1O.Cl [1078_1] and report it. 141.96

Find the recorded a(O1, O2, H3) belonging to "Cc1nc(N)ccc1CNC(=O)[C@H](C)NC(=O)[C@H]1C[C@H](Cc2ccccc2)CN1" and report it. 147.16

Find the recorded a(O1, O2, H3) belonging to "Cc1nc(N)ccc1CNC(=O)[C@H](C)NC(=O)[C@H]1C[C@H](Cc2ccc(-c3ccccc3)cc2)CN1" and report it. 148.60

---

a(O2, N2, C2): recorded values
MEASUREMENT TARGET: MASP-2 CCP2-SP (Homo sapiens (Human))
TEST PROTOCOL: MASP-2 co-crystallization, X-ray crystallography and structure analysis (H-bonds, van der Waals contacts)
PROTOCOL CONDITIONS: Table A6-2 pharmacophore angle

{"COMPOUND": "C[C@H](NC(=O)[C@H]1C[C@@H](c2ccccc2)CCN1)C(=O)NCc1cc(Cl)ccc1O.Cl [1078_7]", "RESULT": 114.22}
{"COMPOUND": "Cc1nc(N)ccc1CNC(=O)[C@H](C)NC(=O)[C@H]1C[C@@H](c2cccc3ccccc23)CCN1.Cl.Cl [1297_5]", "RESULT": 132.77}
{"COMPOUND": "Cc1nc(N)ccc1CNC(=O)C(C)NC(=O)C1CC(c2cccc3ccccc23)CCN1.Cl.Cl (centres unmarked) [1297_1]", "RESULT": 130.88}

Find the recorded a(O2, N2, C2) belonging to C[C@H](NC(=O)[C@H]1C[C@@H](c2ccccc2)CCN1)C(=O)NCc1cc(Cl)ccc1O.Cl [1078_10] and report it. 131.78

Find the recorded a(O2, N2, C2) belonging to C[C@H](NC(=O)[C@H]1C[C@@H](c2ccccc2)CCN1)C(=O)NCc1cc(Cl)ccc1O.Cl [1078_1] and report it. 121.70

---

MEASUREMENT TARGET: UniProtKB O00187
TEST PROTOCOL: MASP-2 co-crystallization, X-ray crystallography and structure analysis (H-bonds, van der Waals contacts)
PROTOCOL CONDITIONS: Table A8-6; 6th residue column; nearest protein atom in cell to the left
ASSAY METRIC: Pharmacophore protein distance to MET_658 (first MET_658 column)

Sample records with Pharmacophore protein distance to MET_658 (first MET_658 column):
{"COMPOUND": "C[C@H](NC(=O)[C@H](N)C1Cc2ccccc2C1)C(=O)NCc1ccc2nc(N)[nH]c2c1", "MEASUREMENT TARGET": "UniProtKB O00187", "RESULT": 1.94}
{"COMPOUND": "C[C@H](NC(=O)[C@H]1C[C@@H](c2ccccc2)CCN1)C(=O)NCc1ccc(C(=N)N)cc1 (stereo in doubt)", "MEASUREMENT TARGET": "UniProtKB O00187", "RESULT": 3.34}
{"COMPOUND": "C[C@H](NC(=O)[C@H](N)CCCc1ccccc1)C(=O)NCc1ccc(C(=N)N)cc1.Cl.Cl [1042_1]", "MEASUREMENT TARGET": "UniProtKB O00187", "RESULT": 2.06}

Switching to the query record.
Find the recorded Pharmacophore protein distance to MET_658 (first MET_658 column) belonging to C[C@H](NC(=O)[C@H](N)C1Cc2ccccc2C1)C(=O)NCc1ccc2c(N)nccc2c1.Cl.Cl [1088_B] and report it. 3.04

---

MEASUREMENT TARGET: MASP-2 CCP2-SP (Homo sapiens (Human), UniProt O00187)
Sequence (O00187 445-686): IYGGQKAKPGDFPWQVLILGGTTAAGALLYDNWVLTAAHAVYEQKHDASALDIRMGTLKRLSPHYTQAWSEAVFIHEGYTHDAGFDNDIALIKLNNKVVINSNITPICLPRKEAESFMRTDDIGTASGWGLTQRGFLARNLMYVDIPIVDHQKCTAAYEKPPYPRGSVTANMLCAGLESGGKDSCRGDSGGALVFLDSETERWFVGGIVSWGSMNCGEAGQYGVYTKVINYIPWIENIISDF
Sequence (O00187 364-432 partner): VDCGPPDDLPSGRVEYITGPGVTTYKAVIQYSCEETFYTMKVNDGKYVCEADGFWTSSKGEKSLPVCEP
TEST PROTOCOL: MASP-2 co-crystallization, X-ray crystallography and structure analysis (H-bonds, van der Waals contacts)
PROTOCOL CONDITIONS: Table A6-2 pharmacophore angle
Structures can show the parent of a compound that is named as a salt.
a(O1, O2, N2): recorded values
Reply with just the number.

Sample records with a(O1, O2, N2):
{"MOLECULE": "C[C@H](NC(=O)[C@H]1C[C@@H](c2ccccc2)CCN1)C(=O)NCc1cc(Cl)ccc1O.Cl [1078_10]", "MEASUREMENT TARGET": "MASP-2 CCP2-SP (Homo sapiens (Human), UniProt O00187)", "a(O1, O2, N2)": 152.80}
{"MOLECULE": "Cc1nc(N)ccc1CNC(=O)[C@H](C)NC(=O)[C@H]1C[C@@H](c2ccccc2)CCN1CCC(=O)O [compound 1411, Trifluoroacetate salt]", "MEASUREMENT TARGET": "MASP-2 CCP2-SP (Homo sapiens (Human), UniProt O00187)", "a(O1, O2, N2)": 140.47}
{"MOLECULE": "Cc1nc(N)ccc1CNC(=O)C(C)NC(=O)[C@H]1C[C@H](c2cccc(-c3ccccc3)c2)CN1 (stereo in doubt) [compound 1360]", "MEASUREMENT TARGET": "MASP-2 CCP2-SP (Homo sapiens (Human), UniProt O00187)", "a(O1, O2, N2)": 138.89}
{"MOLECULE": "Cc1nc(N)ccc1CNC(=O)C(C)NC(=O)C1CC(c2cccc3ccccc23)CCN1.Cl.Cl (stereo not shown) [1297_3]", "MEASUREMENT TARGET": "MASP-2 CCP2-SP (Homo sapiens (Human), UniProt O00187)", "a(O1, O2, N2)": 144.44}
{"MOLECULE": "C[C@H](NC(=O)[C@H]1C[C@@H](c2ccccc2)CCN1)C(=O)NCc1cnc2[nH]cc(Cl)c2c1 [compound 1433]", "MEASUREMENT TARGET": "MASP-2 CCP2-SP (Homo sapiens (Human), UniProt O00187)", "a(O1, O2, N2)": 141.60}
{"MOLECULE": "N=C(N)c1ccc(CNC(=O)[C@@H]2CCN2C(=O)[C@H](NCC(=O)O)C2Cc3ccccc3C2)cc1 [compound 1129]", "MEASUREMENT TARGET": "MASP-2 CCP2-SP (Homo sapiens (Human), UniProt O00187)", "a(O1, O2, N2)": 127.76}

Switching to the query record.
Find the recorded a(O1, O2, N2) belonging to C[C@H](NC(=O)[C@H]1C[C@@H](c2ccccc2)CCN1)C(=O)NCc1cc(Cl)ccc1O.Cl [1078_12] and report it. 154.56

---

MEASUREMENT TARGET: MASP-2 CCP2-SP (Homo sapiens (Human), UniProt O00187)
TEST PROTOCOL: MASP-2 co-crystallization, X-ray crystallography and structure analysis (H-bonds, van der Waals contacts)
PROTOCOL CONDITIONS: Table A7-2; between pharmacophore elements of the bound compound
ASSAY METRIC: Pharmacophore torsion angle a(O1, O2, N2, CA2)

Sample records with Pharmacophore torsion angle a(O1, O2, N2, CA2):
{"COMPOUND": "C[C@H](NC(=O)[C@H](N)CCc1ccccc1)C(=O)NCc1ccc(N)nc1.Cl.Cl [1007_1]", "RESULT": 128.23}
{"COMPOUND": "C[C@H](NC(=O)[C@H]1C[C@H](Cc2ccccc2)CN1)C(=O)NCc1ccc(C(=N)N)cc1.Cl.Cl [1306_2]", "RESULT": 124.98}
{"COMPOUND": "Cc1nc(N)ccc1CNC(=O)[C@H](C)NC(=O)[C@H]1C[C@H](Cc2cccc(Cl)c2)CN1.Cl.Cl [1328_4]", "RESULT": 128.70}

Switching to the query record.
Find the recorded Pharmacophore torsion angle a(O1, O2, N2, CA2) belonging to Cc1nc(N)ccc1CNC(=O)C(C)NC(=O)C1CC(c2cccc3ccccc23)CCN1.Cl.Cl (stereo not shown) [1297_1] and report it. 131.38
